Values from ChEMBL document CHEMBL3763146

- SUBJECT OF TEST: Sodium-dependent serotonin transporter (Homo sapiens, UniProt P31645)
- Sequence (P31645 whole entry): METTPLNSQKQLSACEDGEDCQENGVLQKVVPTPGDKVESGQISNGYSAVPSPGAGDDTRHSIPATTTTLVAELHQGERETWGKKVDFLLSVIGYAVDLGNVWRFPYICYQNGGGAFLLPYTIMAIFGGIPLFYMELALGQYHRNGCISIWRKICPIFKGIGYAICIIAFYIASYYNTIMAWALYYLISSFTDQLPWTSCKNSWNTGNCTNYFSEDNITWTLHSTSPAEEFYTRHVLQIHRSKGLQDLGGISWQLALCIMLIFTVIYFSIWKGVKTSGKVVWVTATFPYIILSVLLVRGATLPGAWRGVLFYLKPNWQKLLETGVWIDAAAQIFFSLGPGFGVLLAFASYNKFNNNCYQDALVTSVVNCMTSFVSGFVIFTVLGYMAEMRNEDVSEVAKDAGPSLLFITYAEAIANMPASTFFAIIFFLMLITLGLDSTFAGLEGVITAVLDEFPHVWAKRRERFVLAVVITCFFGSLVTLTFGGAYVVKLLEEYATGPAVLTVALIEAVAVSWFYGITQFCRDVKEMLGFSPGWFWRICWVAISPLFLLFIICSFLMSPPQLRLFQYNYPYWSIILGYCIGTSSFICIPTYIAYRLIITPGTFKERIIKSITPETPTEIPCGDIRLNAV
- PROTOCOL DETAILS: Inhibition of human SERT expressed in HEK293 cells preincubated for 30 mins followed by fluorescent substrate addition measured after 30 mins by plate reader analysis
In plain terms, low IC50, meaning strictly below 0.8 µM, gives criterion met, and everything else gives criterion not met.

O=C(Cn1cnc2ccccc2c1=O)Nc1ccc(C[C@@H]2CC[C@H]([C@H](O)c3ccccc3)N2)cc1	criterion met
O=C(Nc1ccc(C[C@@H]2CC[C@H]([C@H](O)c3ccccc3)N2)cc1)[C@@H]1CCc2nccc(=O)n21 [VIBEGRON]	criterion not met
O=C(Cn1ccccc1=O)Nc1ccc(C[C@@H]2CC[C@H]([C@H](O)c3ccccc3)N2)cc1	criterion not met

Request: Would you kindly verify if IC50 of C[C@@H](C(=O)Nc1ccc(C[C@@H]2CC[C@H]([C@H](O)c3ccccc3)N2)cc1)n1ncccc1=O is strictly less than 0.8 µM?
Response: criterion not met

Request: Would you kindly verify if IC50 of O=S(=O)(Nc1ccc(CCNC[C@H](O)c2cccnc2)cc1)c1ccc(-c2nc(-c3ccc(C(F)(F)F)cc3)cs2)cc1 is strictly less than 0.8 µM?
Response: criterion not met

Request: Would you kindly verify if IC50 of O=C(Cn1cccnc1=O)Nc1ccc(C[C@@H]2CC[C@H]([C@H](O)c3ccccc3)N2)cc1 is strictly less than 0.8 µM?
Response: criterion not met

Request: Would you kindly verify if IC50 of O=C(Cn1cnccc1=O)Nc1ccc(C[C@@H]2CC[C@H]([C@H](O)c3ccccc3)N2)cc1 is strictly less than 0.8 µM?
Response: criterion met

Request: Would you kindly verify if IC50 of O=C(Cn1ncccc1=O)Nc1ccc(C[C@@H]2CC[C@H]([C@H](O)c3ccccc3)N2)cc1 is strictly less than 0.8 µM?
Response: criterion not met

Request: Would you kindly verify if IC50 of Nc1nc(CC(=O)Nc2ccc(C[C@@H]3CC[C@H]([C@H](O)c4ccccc4)N3)cc2)cs1 is strictly less than 0.8 µM?
Response: criterion not met

Request: Would you kindly verify if IC50 of O=C(Nc1ccc(C[C@@H]2CC[C@H]([C@H](O)c3ccccc3)N2)cc1)[C@@H]1CCc2cccc(=O)n21 is strictly less than 0.8 µM?
Response: criterion not met
